- MEASUREMENT_NOTES: Antiproliferative activity against human LX2 cells incubated for 120 hrs in presence of JQ1 by MTT assay
- Assay type: toxicity, cell-based
- MEASUREMENT_PARAMETERS: LX-2 cells
EXPERIMENTAL_ENDPOINT: IC50 at 120 h

In: Endpoint output: IC50 at 120 h of O=C(/C=C/c1cccnc1)NCCCCC1CCN(C(=O)c2ccccc2)CC1 . Value?
Out: < 0.032 µM

###

- System: HCCLM3
- MEASUREMENT_NOTES: Antiproliferative activity against human HCCLM3 cells incubated for 120 hrs in presence of JQ1 by MTT assay
- Type: functional, cell-based
- MEASUREMENT_PARAMETERS: HCCLM3, 120 h
EXPERIMENTAL_ENDPOINT: pIC50
pIC50 (log units): -log10 of the concentration in mol/L.

In: Endpoint output: pIC50 of O=C(/C=C/c1cccnc1)NCCCCC1CCN(C(=O)c2ccccc2)CC1 . Value?
Out: 6.40

###

- STUDY_TARGET: Bromodomain-containing protein 4 (Homo sapiens, UniProt O60885)
- MEASUREMENT_NOTES: Inhibition of BRD4 BD1/2 (unknown origin) incubated for 120 mins by TR-FRET assay
EXPERIMENTAL_ENDPOINT: pIC50
pIC50 (log units): -log10 of the concentration in mol/L.

In: Endpoint output: pIC50 of Cc1sc2c(c1C)C(c1ccc(Cl)cc1)=N[C@@H](CC(=O)NCCCNC(=O)/C=C/c1cccnc1)c1nnc(C)n1-2 . Value?
Out: 7.24

###

Recorded IC50, one value per entry.
- Test system: Hep 3B2
- MEASUREMENT_NOTES: Antiproliferative activity against human Hep3B cells measured after 72 hrs
- Assay type: functional, cell-based
Answer with a number only, understood to be in µM.

Cc1sc2c(c1C)C(c1ccc(Cl)cc1)=N[C@@H](CC(=O)OC(C)(C)C)c1nnc(C)n1-2 ... 5

Now, please, on to the next molecule.
In: Query IC50 on Hep 3B2 for O=C(/C=C/c1cccnc1)NCCCCC1CCN(C(=O)c2ccccc2)CC1
Out: 53.7

###

- Test system: HCCLM3
- MEASUREMENT_NOTES: cells
- MEASUREMENT_PARAMETERS: Homo sapiens, HCCLM3, 120 h
EXPERIMENTAL_ENDPOINT: pIC50
pIC50 (log units): -log10 of the concentration in mol/L.

In: Endpoint output: pIC50 of O=C(/C=C/c1cccnc1)NCCCCC1CCN(C(=O)c2ccccc2)CC1 . Value?
Out: 6.00

In: Repeat for the following molecule: Cc1sc2c(c1C)C(c1ccc(Cl)cc1)=N[C@@H](CC(=O)NCCCNC(=O)/C=C/c1cccnc1)c1nnc(C)n1-2
Out: 5.26

In: Repeat for the following molecule: Cc1sc2c(c1C)C(c1ccc(Cl)cc1)=N[C@@H](CC(=O)OC(C)(C)C)c1nnc(C)n1-2
Out: 4.06

###

- STUDY_TARGET: Bromodomain-containing protein 4 (Homo sapiens, UniProt O60885)
- MEASUREMENT_NOTES: Inhibition of BRD4 BD2 (unknown origin) incubated for 120 mins by TR-FRET assay
EXPERIMENTAL_ENDPOINT: IC50 (nM)
Answer with a number only, understood to be in nM.

In: Endpoint output: IC50 of Cc1sc2c(c1C)C(c1ccc(Cl)cc1)=N[C@@H](CC(=O)NCCCNC(=O)/C=C/c1cccnc1)c1nnc(C)n1-2 . Value?
Out: 41

###

- STUDY_TARGET: Bromodomain-containing protein 4 (Homo sapiens, UniProt O60885)
- MEASUREMENT_NOTES: Inhibition of BRD4 BD1 (unknown origin) incubated for 120 mins by TR-FRET assay
EXPERIMENTAL_ENDPOINT: IC50

In: Endpoint output: IC50 of Cc1sc2c(c1C)C(c1ccc(Cl)cc1)=N[C@@H](CC(=O)NCCCNC(=O)/C=C/c1cccnc1)c1nnc(C)n1-2 . Value?
Out: 0.012 µM

###

Recorded pIC50, one value per entry.
- STUDY_TARGET: Bromodomain-containing protein 4 (Homo sapiens, UniProt O60885)
- MEASUREMENT_NOTES: Inhibition of BRD4 (unknown origin) incubated for 120 mins by TR-FRET assay
pIC50 (log units): -log10 of the concentration in mol/L.

Use the examples below as a reference point.
Cc1sc2c(c1C)C(c1ccc(Cl)cc1)=N[C@@H](CC(=O)NCCOCCNC(=O)/C=C/c1cccnc1)c1nnc(C)n1-2 ... 6.50
Cc1sc2c(c1C)C(c1ccc(Cl)cc1)=N[C@@H](CC(=O)NCCCCCCNC(=O)/C=C/c1cccnc1)c1nnc(C)n1-2 ... 6.82
Cc1sc2c(c1C)C(c1ccc(Cl)cc1)=N[C@@H](CC(=O)N1CCC(CCCNC(=O)/C=C/c3cccnc3)CC1)c1nnc(C)n1-2 ... 6.21

Now, please, on to the next compound.
In: Endpoint output: pIC50 of Cc1sc2c(c1C)C(c1ccc(Cl)cc1)=N[C@@H](CC(=O)NCCNC(=O)/C=C/c1cccnc1)c1nnc(C)n1-2 . Value?
Out: 7.30

###

- STUDY_TARGET: Nicotinamide phosphoribosyltransferase (Homo sapiens)
- Sequence (P43490 whole entry): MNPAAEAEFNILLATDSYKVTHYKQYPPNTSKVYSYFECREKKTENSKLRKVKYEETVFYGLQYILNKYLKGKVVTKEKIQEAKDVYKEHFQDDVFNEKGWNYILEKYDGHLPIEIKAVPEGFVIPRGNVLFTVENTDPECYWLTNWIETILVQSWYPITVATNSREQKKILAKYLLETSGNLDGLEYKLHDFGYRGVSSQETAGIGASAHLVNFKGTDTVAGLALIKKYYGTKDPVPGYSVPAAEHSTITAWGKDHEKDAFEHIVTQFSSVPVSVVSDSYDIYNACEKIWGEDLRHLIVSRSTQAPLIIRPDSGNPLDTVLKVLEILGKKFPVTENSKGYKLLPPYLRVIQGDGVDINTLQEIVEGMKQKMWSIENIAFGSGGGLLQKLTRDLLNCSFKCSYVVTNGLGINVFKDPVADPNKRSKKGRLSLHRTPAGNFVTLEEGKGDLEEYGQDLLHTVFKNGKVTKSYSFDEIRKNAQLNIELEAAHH
- MEASUREMENT_NOTES: Inhibition of recombinant NAMPT (unknown origin) by fluorescence based assay
EXPERIMENTAL_ENDPOINT: pIC50
pIC50 (log units): -log10 of the concentration in mol/L.

Cc1sc2c(c1C)C(c1ccc(Cl)cc1)=N[C@@H](CC(=O)NCCCCCCNC(=O)/C=C/c1cccnc1)c1nnc(C)n1-2 ... 7.92
Cc1sc2c(c1C)C(c1ccc(Cl)cc1)=N[C@@H](CC(=O)NCCOCCNC(=O)/C=C/c1cccnc1)c1nnc(C)n1-2 ... 6.78
Cc1sc2c(c1C)C(c1ccc(Cl)cc1)=N[C@@H](CC(=O)Nc1ccc(NC(=O)/C=C/c3cccnc3)cc1)c1nnc(C)n1-2 ... 6.34
Cc1sc2c(c1C)C(c1ccc(Cl)cc1)=N[C@@H](CC(=O)N1CCC(CCNC(=O)/C=C/c3cccnc3)CC1)c1nnc(C)n1-2 ... 7.06
Cc1sc2c(c1C)C(c1ccc(Cl)cc1)=N[C@@H](CC(=O)NCCNC(=O)/C=C/c1cccnc1)c1nnc(C)n1-2 ... 6.39
Cc1sc2c(c1C)C(c1ccc(Cl)cc1)=N[C@@H](CC(=O)N1CCC(CCCNC(=O)/C=C/c3cccnc3)CC1)c1nnc(C)n1-2 ... 6.78
Cc1sc2c(c1C)C(c1ccc(Cl)cc1)=N[C@@H](CC(=O)NCCCCCNC(=O)/C=C/c1cccnc1)c1nnc(C)n1-2 ... 6.94
Cc1sc2c(c1C)C(c1ccc(Cl)cc1)=N[C@@H](CC(=O)NCc1ccc(NC(=O)/C=C/c3cccnc3)cc1)c1nnc(C)n1-2 ... 6.51
Cc1sc2c(c1C)C(c1ccc(Cl)cc1)=N[C@@H](CC(=O)NCCCNC(=O)/C=C/c1cccnc1)c1nnc(C)n1-2 ... 7.46
Cc1sc2c(c1C)C(c1ccc(Cl)cc1)=N[C@@H](CC(=O)NCc1ccc(CNC(=O)/C=C/c3cccnc3)cc1)c1nnc(C)n1-2 ... 6.70

In: Endpoint output: pIC50 of Cc1sc2c(c1C)C(c1ccc(Cl)cc1)=N[C@@H](CC(=O)N1CCC(CCCCNC(=O)/C=C/c3cccnc3)CC1)c1nnc(C)n1-2 . Value?
Out: 7.46

In: Repeat for the following molecule: Cc1sc2c(c1C)C(c1ccc(Cl)cc1)=N[C@@H](CC(=O)NCCCCNC(=O)/C=C/c1cccnc1)c1nnc(C)n1-2
Out: 8.00

In: Repeat for the following molecule: Cc1sc2c(c1C)C(c1ccc(Cl)cc1)=N[C@@H](CC(=O)Nc1ccc(CCNC(=O)/C=C/c3cccnc3)cc1)c1nnc(C)n1-2
Out: 7.77

In: Repeat for the following molecule: Cc1sc2c(c1C)C(c1ccc(Cl)cc1)=N[C@@H](CC(=O)NCCOCCOCCNC(=O)/C=C/c1cccnc1)c1nnc(C)n1-2
Out: 7.89

###

- STUDY_TARGET: Bromodomain-containing protein 4 (Homo sapiens, UniProt O60885)
- MEASUREMENT_NOTES: Inhibition of BRD4 (unknown origin) incubated for 120 mins by TR-FRET assay
pIC50: −log10 of the molar value.
# binarize pIC50: threshold 7 inclusive, high side y, low side n

Cc1sc2c(c1C)C(c1ccc(Cl)cc1)=N[C@@H](CC(=O)Nc1ccc(NC(=O)/C=C/c3cccnc3)cc1)c1nnc(C)n1-2 ... n

In: Hi team, for Cc1sc2c(c1C)C(c1ccc(Cl)cc1)=N[C@@H](CC(=O)NCCCNC(=O)/C=C/c1cccnc1)c1nnc(C)n1-2 , is the recorded pIC50 at or above 7?
Out: y

In: Repeat for the following compound: Cc1sc2c(c1C)C(c1ccc(Cl)cc1)=N[C@@H](CC(=O)NCc1ccc(NC(=O)/C=C/c3cccnc3)cc1)c1nnc(C)n1-2
Out: n

In: Repeat for the following compound: Cc1sc2c(c1C)C(c1ccc(Cl)cc1)=N[C@@H](CC(=O)NCCCCCNC(=O)/C=C/c1cccnc1)c1nnc(C)n1-2
Out: n

In: Repeat for the following compound: Cc1sc2c(c1C)C(c1ccc(Cl)cc1)=N[C@@H](CC(=O)N1CCC(NC(=O)/C=C/c3cccnc3)CC1)c1nnc(C)n1-2
Out: n

In: Repeat for the following compound: Cc1sc2c(c1C)C(c1ccc(Cl)cc1)=N[C@@H](CC(=O)NCCOCCOCCNC(=O)/C=C/c1cccnc1)c1nnc(C)n1-2
Out: n
